Biological target: T1, soluble KDR extracellular domain (ECD) (Calbiochem) (human, UniProt P35968 20-764)
T1 construct: extracellular domain; Bought protein; also called KDR-ECD; VEGF Receptor 2 D1-7, Cat. #676490
T1 sequence (P35968 20-764): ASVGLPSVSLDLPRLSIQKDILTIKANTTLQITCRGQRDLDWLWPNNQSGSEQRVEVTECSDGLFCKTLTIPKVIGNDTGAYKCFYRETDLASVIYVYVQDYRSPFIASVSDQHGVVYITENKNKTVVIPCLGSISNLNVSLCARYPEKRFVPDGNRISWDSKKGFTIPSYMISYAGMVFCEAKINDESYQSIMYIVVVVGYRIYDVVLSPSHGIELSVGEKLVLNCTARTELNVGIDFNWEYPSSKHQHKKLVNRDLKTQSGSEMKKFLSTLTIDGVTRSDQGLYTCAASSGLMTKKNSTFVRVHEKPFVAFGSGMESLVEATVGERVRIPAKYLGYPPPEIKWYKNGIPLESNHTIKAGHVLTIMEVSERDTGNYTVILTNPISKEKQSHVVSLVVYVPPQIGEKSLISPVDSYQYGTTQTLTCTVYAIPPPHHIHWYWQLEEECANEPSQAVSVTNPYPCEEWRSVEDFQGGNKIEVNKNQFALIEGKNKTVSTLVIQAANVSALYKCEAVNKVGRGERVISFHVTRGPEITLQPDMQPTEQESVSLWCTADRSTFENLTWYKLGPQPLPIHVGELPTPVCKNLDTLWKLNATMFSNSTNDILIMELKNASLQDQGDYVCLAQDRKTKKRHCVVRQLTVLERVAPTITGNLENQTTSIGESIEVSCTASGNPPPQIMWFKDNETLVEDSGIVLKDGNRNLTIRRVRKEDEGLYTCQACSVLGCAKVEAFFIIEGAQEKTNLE
Test: High Antigen ELISA, KDR coat 500 ng/mL, supernatant 1:6075
Kindly supply the reported ELISA reading values for the records listed here.
Reply: number alone, nothing else.

Quick one: ELISA reading for 31E11 (antibody, V domains shown, Fully human mAb from XenoMouse hybridoma, tested as hybridoma supernatant) VH: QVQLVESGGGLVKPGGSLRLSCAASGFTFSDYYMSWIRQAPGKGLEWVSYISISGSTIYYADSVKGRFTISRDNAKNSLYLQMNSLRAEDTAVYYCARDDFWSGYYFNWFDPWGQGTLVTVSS VL: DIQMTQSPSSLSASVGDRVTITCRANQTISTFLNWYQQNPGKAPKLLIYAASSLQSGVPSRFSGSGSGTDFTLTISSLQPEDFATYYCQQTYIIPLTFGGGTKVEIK ?
0.62

Quick one: ELISA reading for 33B1 (antibody, V domains shown, Fully human mAb from XenoMouse hybridoma, tested as hybridoma supernatant) VH: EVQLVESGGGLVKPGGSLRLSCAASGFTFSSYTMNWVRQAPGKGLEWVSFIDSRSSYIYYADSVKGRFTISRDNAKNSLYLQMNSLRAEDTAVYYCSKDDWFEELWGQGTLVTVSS VL: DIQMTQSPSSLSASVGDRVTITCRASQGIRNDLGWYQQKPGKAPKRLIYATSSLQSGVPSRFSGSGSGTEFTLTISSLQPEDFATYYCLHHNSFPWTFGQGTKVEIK ?
0.25

Reference for the values: patent US20100260765A1
